These data points were gathered from ChEMBL document CHEMBL3870361.

Biological target: Prostaglandin F2-alpha receptor (Homo sapiens)
Sequence (P43088 whole entry): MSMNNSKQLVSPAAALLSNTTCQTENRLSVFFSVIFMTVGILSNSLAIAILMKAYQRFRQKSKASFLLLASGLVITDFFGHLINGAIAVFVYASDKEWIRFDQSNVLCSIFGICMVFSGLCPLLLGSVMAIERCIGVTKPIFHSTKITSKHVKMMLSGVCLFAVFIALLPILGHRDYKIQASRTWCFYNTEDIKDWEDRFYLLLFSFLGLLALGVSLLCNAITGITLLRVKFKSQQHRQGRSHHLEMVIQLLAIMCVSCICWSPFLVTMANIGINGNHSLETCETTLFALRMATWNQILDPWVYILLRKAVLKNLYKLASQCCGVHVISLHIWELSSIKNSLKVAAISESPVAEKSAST
Experiment: Agonist activity at human prostaglandin FP receptor expressed in CHO cells assessed as increase in intracellular calcium level by Fura 2-AM dye based fluorescence assay
pEC50: −log10 of the molar value.
ASSAY METRIC: pEC50

Study these solved cases before continuing.
>>> print(df.to_string())
                            smiles_notation  assay_metric  value
0  O=C(O)CC[C@@H]1CC[C@@H]2[C@@H](/C=C/[C@@H](O)COc3ccccc3)[C@H](O)C[C@@H]2OC1         pEC50   6.00
1  O=C(O)CCCC1=CC[C@@H]2[C@@H](/C=C/[C@@H](O)COc3ccccc3)[C@H](O)C[C@@H]2OC1         pEC50   6.19

I = O=C(O)CCCCCC1=CC[C@@H]2[C@@H](/C=C/[C@@H](O)COc3ccccc3)[C@H](O)C[C@@H]2OC1
II = O=C(O)CCC[C@H]1CC[C@@H]2[C@@H](/C=C/[C@@H](O)COc3ccccc3)[C@H](O)C[C@@H]2OC1
From the recorded data, which exceeds the other in pEC50: I or II ? Output the label that corresponds to your choice.
II
(II: 7.55, I: 6.06)

====

Target: Prostaglandin E2 receptor EP2 subtype (Homo sapiens)
Sequence (P43116 whole entry): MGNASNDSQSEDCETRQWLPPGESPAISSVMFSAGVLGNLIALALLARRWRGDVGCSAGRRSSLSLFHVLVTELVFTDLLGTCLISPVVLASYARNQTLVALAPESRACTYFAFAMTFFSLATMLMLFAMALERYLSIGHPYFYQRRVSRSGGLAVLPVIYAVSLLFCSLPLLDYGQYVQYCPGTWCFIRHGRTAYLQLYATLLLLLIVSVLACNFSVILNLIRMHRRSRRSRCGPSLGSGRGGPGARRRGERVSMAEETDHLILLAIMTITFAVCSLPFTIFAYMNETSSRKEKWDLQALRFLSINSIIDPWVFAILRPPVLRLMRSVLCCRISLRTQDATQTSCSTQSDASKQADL
Assay: Agonist activity at EP2 receptor (unknown origin)
pEC50: −log10 of the molar value.
ASSAY METRIC: pEC50

Any idea what pEC50 was measured for O=C(O)CCC[C@H]1CC[C@@H]2[C@@H](/C=C/[C@@H](O)COc3ccccc3)[C@H](O)C[C@@H]2OC1 ?
< 5.00

====

Biological target: UniProtKB P43088
Assay: Agonist activity at human prostaglandin FP receptor expressed in CHO cells assessed as increase in intracellular calcium level by Fura 2-AM dye based fluorescence assay
ASSAY METRIC: EC50 (nM)

In [3]: df
Out[3]:
                                   compound   measured_target  assay_metric  unit_abbreviation  value
0  O=C(O)CC[C@H]1CCC[C@@H]2[C@@H](/C=C/[C@@H](O)COc3ccccc3)[C@H](O)C[C@@H]2O1  UniProtKB P43088          EC50                 nM     22
1  O=C(O)CC[C@@H]1CCC[C@@H]2[C@@H](/C=C/[C@@H](O)COc3ccccc3)[C@H](O)C[C@@H]2O1  UniProtKB P43088          EC50                 nM    3.8

I = O=C(O)CCC/C=C\C[C@@H]1[C@@H](/C=C/[C@@H](O)COc2cccc(C(F)(F)F)c2)[C@H](O)C[C@@H]1O [FLUPROSTENOL]
II = O=C(O)CC[C@H]1CC[C@@H]2[C@@H](/C=C/[C@@H](O)COc3ccccc3)[C@H](O)C[C@@H]2OC1
Please choose the item with the lower EC50 value from this pair: I and II Output the label that corresponds to your choice.
I
(I: 3.6 nM, II: 110 nM)

====

Target: Prostaglandin E2 receptor EP4 subtype (Homo sapiens)
Sequence (P35408 whole entry): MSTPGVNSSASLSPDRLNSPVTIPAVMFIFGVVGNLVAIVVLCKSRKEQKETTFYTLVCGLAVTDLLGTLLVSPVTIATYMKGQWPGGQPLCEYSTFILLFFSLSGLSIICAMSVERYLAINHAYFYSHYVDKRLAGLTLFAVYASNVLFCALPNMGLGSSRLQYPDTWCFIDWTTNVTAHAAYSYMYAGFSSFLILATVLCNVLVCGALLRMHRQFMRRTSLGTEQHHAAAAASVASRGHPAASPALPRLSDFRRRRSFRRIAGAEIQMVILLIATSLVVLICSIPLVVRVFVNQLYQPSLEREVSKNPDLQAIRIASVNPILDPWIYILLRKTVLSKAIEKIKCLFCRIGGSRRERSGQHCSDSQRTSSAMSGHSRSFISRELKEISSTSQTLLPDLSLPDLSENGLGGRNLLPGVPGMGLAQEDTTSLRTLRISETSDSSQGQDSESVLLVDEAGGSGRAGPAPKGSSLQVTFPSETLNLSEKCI
Test: Agonist activity at EP4 receptor (unknown origin)
ASSAY METRIC: EC50

Return EC50 measured with Prostaglandin E2 receptor EP4 subtype (Homo sapiens) given this compound: O=C(O)CCC[C@H]1CC[C@@H]2[C@@H](/C=C/[C@@H](O)COc3ccccc3)[C@H](O)C[C@@H]2OC1
> 10 µM
